Ref: patent US4376773A

tested on: tonic extensor reflex on the rabbit gastrocnemius; assay: Muscle-relaxing action: tonic extensor reflex; format: in vivo; settings: relative activity, clozapine = 1.0
Outcome measure: Muscle relaxation R.A. (relative activity)

CN1CCN(C2=Nc3cc(Cl)ccc3Nc3ccccc32)CC1 [Clozapine, clozapine, reference compound] = 1.0

Problem: Muscle relaxation R.A. (relative activity) lookup needed for CCN1CCN(C2Cc3ccccc3C(=CC#N)c3ccccc32)CC1 (mixture of isomers) , thanks.
Solution: 0.46

Problem: Check CN1CCN(C2Cc3ccccc3C(=CC#N)c3ccccc32)CC1 (mixture of isomers) too.
Solution: 0.46

Problem: Note, next up: CN1CCN(C2Cc3cc(Cl)ccc3C(=CC#N)c3ccccc32)CC1 (mixture of isomers)
Solution: 2.30

Problem: Item: CN1CCN(C2=Nc3ccccc3Cc3ccccc32)CC1 [Perlapine, perlapine, reference compound]
Solution: 0.46
